The reported numbers originate from ChEMBL document CHEMBL1131180.

- ASSAY_TARGET: Substance-P receptor (Homo sapiens, UniProt P25103)
- Sequence (P25103 whole entry): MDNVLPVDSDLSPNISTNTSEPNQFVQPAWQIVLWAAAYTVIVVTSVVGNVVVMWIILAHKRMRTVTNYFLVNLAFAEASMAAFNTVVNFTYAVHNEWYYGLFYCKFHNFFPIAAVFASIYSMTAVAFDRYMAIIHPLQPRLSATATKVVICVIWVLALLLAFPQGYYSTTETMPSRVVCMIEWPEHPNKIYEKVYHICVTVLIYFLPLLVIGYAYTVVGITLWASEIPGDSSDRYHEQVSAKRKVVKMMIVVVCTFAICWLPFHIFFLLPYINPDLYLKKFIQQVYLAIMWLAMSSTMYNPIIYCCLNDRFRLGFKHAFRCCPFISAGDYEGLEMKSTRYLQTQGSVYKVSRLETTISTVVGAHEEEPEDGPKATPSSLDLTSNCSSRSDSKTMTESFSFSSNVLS
- PROTOCOL: Binding affinity at human tachykinin receptor 1 by measuring its ability to displace [125I]-labeled substance P from the cloned receptor expressed in CHO cells.
READOUT: IC50 (nM)

1 = CN(C)CC(=O)N1CCC(COCc2cc(C(F)(F)F)cc(C(F)(F)F)c2)(c2ccccc2)CC1
2 = Oc1n[nH]c(CN2CCC(COCc3cc(C(F)(F)F)cc(C(F)(F)F)c3)(c3ccccc3)CC2)n1
3 = FC(F)(F)c1cc(COCC2(c3ccccc3)CCN(CCc3ccccc3)CC2)cc(C(F)(F)F)c1
4 = COc1cc(COCC2(c3ccccc3)CCNCC2)cc(OC)c1
5 = CC(C)N1CCC(COCc2cc(C(F)(F)F)cc(C(F)(F)F)c2)(c2ccccc2)CC1
Q) Rank the listed molecules according to IC50, from the largest value downward. Show the ranking through the labels, in the order asked for.
A) 4, 3, 5, 2, 1
(4: 90 nM, 3: 6.9 nM, 5: 2.9 nM, 2: 1.7 nM, 1: 0.5 nM)

a = CN(C)CCC(=O)N1CCC(COCc2cc(C(F)(F)F)cc(C(F)(F)F)c2)(c2ccccc2)CC1
b = O=C(Cc1ccccn1)N1CCC(COCc2cc(C(F)(F)F)cc(C(F)(F)F)c2)(c2ccccc2)CC1
c = FC(F)(F)c1ccccc1COCC1(c2ccccc2)CCNCC1
Q) Sort by IC50, descending. Returns: the labels arranged in the requested order.
A) c, b, a
